Just for reference, patent US20180298070A1 is where these values come from.

# STUDY SYSTEM: T1, human GIPR (human), P48546
# T1 chain: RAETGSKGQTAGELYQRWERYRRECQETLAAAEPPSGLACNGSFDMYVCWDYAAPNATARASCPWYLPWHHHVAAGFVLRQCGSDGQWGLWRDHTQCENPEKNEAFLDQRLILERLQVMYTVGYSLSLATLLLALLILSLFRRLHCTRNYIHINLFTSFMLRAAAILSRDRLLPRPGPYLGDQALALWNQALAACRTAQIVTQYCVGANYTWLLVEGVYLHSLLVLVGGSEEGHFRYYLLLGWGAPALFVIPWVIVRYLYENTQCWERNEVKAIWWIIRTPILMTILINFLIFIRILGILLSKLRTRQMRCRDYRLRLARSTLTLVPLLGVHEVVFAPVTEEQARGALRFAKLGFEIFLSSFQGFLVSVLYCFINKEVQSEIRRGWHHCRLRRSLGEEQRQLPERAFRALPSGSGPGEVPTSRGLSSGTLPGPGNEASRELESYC
Non-standard residues stand in square brackets, D forms with d. Groups on a side chain read outwards from the residue. Primed or numbered codes have the meaning given here. No end group written: not given here. *: point of attachment. C20 diacid = O=C(O)CCCCCCCCCCCCCCCCCCC(=O)*; NMeY = CN[C@@H](Cc1ccc(O)cc1)C(=O)O; αMeF = C[C@](N)(Cc1ccccc1)C(=O)O; Lauroyl = CCCCCCCCCCCC(=O)*; dIva = CC[C@@](C)(N)C(=O)O; Iva = CC[C@](C)(N)C(=O)O; PEG2′ = not defined here; Aib = CC(C)(N)C(=O)O
READOUT TYPE: Agonist activity (EC50, M)

[
  {
    "BINDER": "Y[Aib]EGTFISDYSK([PEG2′-Lauroyl])ALDRIHQ[Aib]N[αMeF]VNW[Iva]LAQRPSSGAPPPS (not fully specified (C-terminus); ends and bridges not checked) [Compound 216]",
    "VALUE": "4.8e-12"
  },
  {
    "BINDER": "Y[Aib]EGTVVSLYSK([PEG(2)-Pal])[Aib]LDKQAQ[Aib]EFVKWLLAQK (ends and bridges not checked) [Compound 158]",
    "VALUE": "9.9e-11"
  },
  {
    "BINDER": "[NMeY][Aib]EGTFISDYSIALDRIAQQS[αMeF]VNW[Iva]LAQRPSSGAPPPSR (not fully specified (C-terminus); ends and bridges not checked) [Compound 75]",
    "VALUE": "1.4e-12"
  },
  {
    "BINDER": "Y[Aib]EGTFISDYSK([PEG(2)-Lauroyl])ALDRIHQ[Aib]NFVNWLLAQRPSSGAPPPS (ends and bridges not checked) [Compound 209]",
    "VALUE": "4.3e-12"
  },
  {
    "BINDER": "[NMeY][Aib]EGTFISDYSI[Iva]LDRIAQQD[αMeF]VNWLLAQRPSSGAPPPSR (not fully specified (C-terminus); ends and bridges not checked) [Compound 74]",
    "VALUE": "1.4e-12"
  },
  {
    "BINDER": "Me-Y[Aib]EGTFISDYSIALDRIAQ[Aib]S[αMeF]VNW[Iva]LAQRPSSGAPPPSR (not fully specified (residue 1, C-terminus); ends and bridges not checked) [Compound 125]",
    "VALUE": "1.8e-12"
  },
  {
    "BINDER": "[NMeY][Aib]EGTFISDYSIALDR[Aib]AQQD[αMeF]VNWLLAQRPSSGAPPPSR (not fully specified (C-terminus); ends and bridges not checked) [Compound 73]",
    "VALUE": "1.4e-12"
  },
  {
    "BINDER": "Y[Aib]EGTFISDYSK([PEG(2)-Lauroyl])ALDRIAQQDFVNWLLAQRPSSGAPPPS (ends and bridges not checked) [Compound 191]",
    "VALUE": "4.1e-12"
  },
  {
    "BINDER": "Y[Aib]EGTFISDYSK([PEG(2)-Lauroyl])ALDRIAQQD[αMeF]VNWLLAQRPSSGAPPPS (ends and bridges not checked) [Compound 202]",
    "VALUE": "4.6e-12"
  },
  {
    "BINDER": "[NMeY][Aib]EGTFISDYSIALDR[Aib]AQ[Aib]N[αMeF]VNW[Iva]LAQRPSSGAPPPSR (ends and bridges not checked) [Compound 114]",
    "VALUE": "1e-12"
  },
  {
    "BINDER": "Y[Aib]EGTFISDYSK([PEG(2)-C20 diacid])ALDRIAQQNFVNW[Iva]LAQRPSSGAPPPS (not fully specified (C-terminus); ends and bridges not checked) [Compound 402]",
    "VALUE": "7.8e-11"
  },
  {
    "BINDER": "Y[Aib]EGTFISDYSK([PEG(2)-Lauroyl])ALDR[Aib]AQQDFVNWLLAQRPSSGAPPPS (ends and bridges not checked) [Compound 205]",
    "VALUE": "3.4e-12"
  },
  {
    "BINDER": "[NMeY][Aib]EGTFISDYSI[dIva]LDR[Aib]AQQDFVNWLLAQRPSSGAPPPSR (ends and bridges not checked) [Compound 79]",
    "VALUE": "1.1e-12"
  },
  {
    "BINDER": "Y[Aib]EGTFISDYSK([PEG(2)-Pal])ALDRIHQQDFVNWLLAQRPSSGAPPPS (ends and bridges not checked) [Compound 172]",
    "VALUE": "2e-12"
  },
  {
    "BINDER": "Y[Aib]EGTFISDYSIALDRK([PEG(2)-C20 diacid])AQQNFVNW[Iva]LAQRPSSGAPPPS (not fully specified (C-terminus); ends and bridges not checked) [Compound 408]",
    "VALUE": "4.8e-10"
  },
  {
    "BINDER": "Y[Aib]EGTFISDYSIALDRK([PEG(2)-C20 diacid])HQQDFVNWLLAQRPSSGAPPPS (not fully specified (C-terminus); ends and bridges not checked) [Compound 234]",
    "VALUE": "1.5e-10"
  }
]
